# Tested on: PC-3 cells
# protocol description: Antiproliferative activity, Alamar Blue assay, PC-3 cells
# Type: cell-based, human
# condition description: Homo sapiens, PC-3, PC3 cells, Alamar Blue; read-out: PC3 antiproliferative activity pIC50 (converted)
reported metric: IC50 (µM)

Answered cases to consult:
INSERT INTO assay_data (compound, reported_metric, unit_of_measurement, experimental_value) VALUES
  ('CCc1cc2ccc(C(C)(C#N)Cc3cc(C#N)nc(C)n3)cc2[nH]c1=O (stereo not drawn) [Compound 319]', 'IC50', 'µM', 3.98),
  ('Cc1cc2ccc(C(C)(C#N)Cc3cccc(OCC4CCOCC4)c3)cc2[nH]c1=O (stereo not drawn) [Compound 261]', 'IC50', 'µM', 6.31),
  ('CCCn1ccnc1CC(C)(C#N)c1ccc2cc(CC)c(=O)[nH]c2c1 (stereo not drawn) [Compound 335]', 'IC50', 'µM', 10);

(I) CCc1cc2ccc(C(C)(C#N)Cc3cccc(N(C)C)n3)cc2[nH]c1=O (stereo not drawn) [Compound 213]
(II) CCc1cc2ccc(C(C)(C#N)Cc3cc(OC)nc(OC)n3)cc2[nH]c1=O (stereo not drawn) [Compound 358]
Ask: // compare: I vs II , metric IC50, want the smaller Please identify the chosen entry by its label.
Result: I

(1) CCc1cc2ccc(C(C)(C#N)Cc3cnc(OC)nc3Cl)cc2[nH]c1=O (stereo not drawn) [Compound 356]
(2) CCc1cc2ccc(C(C)(C#N)Cc3nc(C)cc(C)n3)cc2[nH]c1=O (stereo not drawn) [Compound 368]
Ask: Of 1 and 2 , which one carries the higher reported IC50? Please identify the chosen entry by its label.
Result: 2

(a) CCc1cc2ccc(C(C)(C#N)Cc3cc(Br)cc(N(C)C)c3)cc2[nH]c1=O (stereo not drawn) [Compound 260]
(b) CCc1cc2ccc(C(C)(C#N)Cc3cc(OC)nc(C)n3)cc2[nH]c1=O (stereo not drawn) [Compound 366]
(c) CCc1cc2ccc(C(C)(C#N)Cc3cc(OCCOC)nc(Cl)n3)cc2[nH]c1=O (stereo not drawn) [Compound 367]
(d) CCc1cc2ccc(C(C)(C#N)Cc3cccc(CNS(C)(=O)=O)c3)cc2[nH]c1=O (stereo not drawn) [Compound 170]
Ask: Thanks in advance: please rank these 4 entries by IC50, highest to lowest. Answer format: the labels, ordered as requested.
Result: d, c, b, a

(P) CCc1cc2ccc(C(C)(C#N)Cc3nc(N(C)C)cc(N(C)C)n3)cc2[nH]c1=O (stereo not drawn) [Compound 205]
(Q) CCc1cc2ccc(C(C)(C#N)Cc3nc(OC)cc(N(C)C)n3)cc2[nH]c1=O (stereo not drawn) [Compound 355]
Ask: Of P and Q , which one carries the higher reported IC50? Please identify the chosen entry by its label.
Result: P

(I) Cc1cc2ccc([C@](C)(C#N)[C@H]3CCc4ccccc43)cc2[nH]c1=O [Compound 387]
(II) CCc1cc2ccc(C(C)(C#N)Cc3cc(N(C)C)nc(N(C)C)n3)cc2[nH]c1=O (stereo not drawn) [Compound 320]
(III) COc1cc(OC)nc(CC(C)(C#N)c2ccc3cc(C)c(=O)[nH]c3c2)n1 (stereo not drawn) [Compound 308]
(IV) Cc1cc2ccc(C(C)(C#N)Cc3cccc(C=Cc4ccccc4)c3)cc2[nH]c1=O (stereo not drawn) [Compound 179]
Ask: Sort entries by IC50 from minimum to maximum value. Answer format: the labels, ordered as requested.
Result: III, II, I, IV
(III: 0.316 µM, II: 0.631 µM, I: 5.01 µM, IV: 7.94 µM)

(a) CCc1cc2ccc(C(C)(C#N)Cc3cccc(Cl)n3)cc2[nH]c1=O (stereo not drawn) [Compound 310]
(b) CCc1cc2ccc(C(C)(C#N)Cc3cccc(OC)c3F)cc2[nH]c1=O (stereo not drawn) [Compound 286]
Ask: // compare: a vs b , metric IC50, want the smaller Please identify the chosen entry by its label.
Result: a
(a: 0.631 µM, b: 2 µM)

(1) CCc1cc2ccc(C(C)(C#N)Cc3cc(Cl)nc(OC)c3)cc2[nH]c1=O (stereo not drawn) [Compound 351]
(2) Cc1cc2ccc(C(C)(C#N)Cc3cccc(I)c3)cc2[nH]c1=O (stereo not drawn) [Compound 256]
(3) CCC[C@@](C#N)(Cc1ccccc1)c1ccc2cc(CC)c(=O)[nH]c2c1 (single isomer, unassigned) [Compound 263]
(4) Cc1nc(-c2ccccc2)sc1CC(C)(C#N)c1ccc2cc(C)c(=O)[nH]c2c1 (stereo not drawn) [Compound 235]
Ask: Thanks in advance: please rank these 4 entries by IC50, highest to lowest. Answer format: the labels, ordered as requested.
Result: 3, 4, 2, 1

(a) CCc1cc2ccc(C(C)(C#N)Cc3cc(Cl)nc(N(C)C)c3)cc2[nH]c1=O (stereo not drawn) [Compound 323]
(b) CCc1cc2ccc(C(C)(C#N)Cc3nccc(OCCOC)n3)cc2[nH]c1=O (stereo not drawn) [Compound 369]
(c) CCc1cc2ccc(C(C)(C#N)CCOc3ccc4c(c3)OCO4)cc2[nH]c1=O (stereo not drawn) [Compound 279]
Ask: Thanks in advance: please rank these 3 entries by IC50, highest to lowest. Answer format: the labels, ordered as requested.
Result: b, c, a
